Kindly supply the reported disease control rating, CUFO values for the records listed here.
Tested on: Fusarium oxysporium f. sp. cucumerinum
Procedure details: Control of soil borne diseases, Cucumber Fusarium Wilt (CUFO); also: ranges in brackets are in %
Assay type: in vivo
Condition description: 2.5 kg/ha soil drench; 14-18 days after treatment

Sample `CN([O-])C(=S)C(=O)C(C)(C)C.CN([O-])C(=S)C(=O)C(C)(C)C.CN([O-])C(=S)C(=O)C(C)(C)C.[Fe+3]` ; disease control rating, CUFO observed: 1 (5-10)

Memo: `CN([O-])C(=S)C(=O)C(C)(C)C.CN([O-])C(=S)C(=O)C(C)(C)C.[Zn+2]` , reported disease control rating, CUFO: 2 (15-25)

Lab book: disease control rating, CUFO of `CN(O)C(=S)C(=O)C(C)(C)C` noted as 1 (5-10)

disease control rating, CUFO in this record for `CN([O-])C(=S)C(=O)C(C)(C)C.CN([O-])C(=S)C(=O)C(C)(C)C.[Cu+2]` : 3 (30-40)

###

Tested on: Rhizoctonia solani
Procedure details: In vitro fungicidal evaluation, growth inhibition (RHIZSO)
Type: cell-based
Parameters: scale not given here
Condition description: 25 ppm, 3-4 days at 21° C.
Rule: growth inhibition rating, RHIZSO of 1 or more gives T; anything lower gives F.

Given the entry `CN(O)C(=S)C(=O)C1(C)CC1` , answer whether its growth inhibition rating, RHIZSO meets or surpasses 1.
F

Is growth inhibition rating, RHIZSO at least 1? Consider `CC(C)(C)C(=O)C(=S)N(O)Cc1ccccc1`
T

For this molecule, is measured growth inhibition rating, RHIZSO 1 or higher? `CN([O-])C(=S)C(=O)C12CC3CC(CC(C3)C1)C2.CN([O-])C(=S)C(=O)C12CC3CC(CC(C3)C1)C2.[Cu+2]`
F

Hi team, for `CC(C)(C)C(=O)C(=S)N(O)C1CCCC1` , is the recorded growth inhibition rating, RHIZSO at or above 1?
T

Kindly determine if growth inhibition rating, RHIZSO recorded for `CC(C)(C)C(=O)C(=S)N([O-])C1CCCC1.CC(C)(C)C(=O)C(=S)N([O-])C1CCCC1.CC(C)(C)C(=O)C(=S)N([O-])C1CCCC1.[Fe+3]` is above or exactly 1.
F

Is the recorded value of growth inhibition rating, RHIZSO equal to or greater than 1 for this molecule? `CC(=O)ON(C)C(=S)C(=O)C(C)(C)C`
F

I'd appreciate it if you could say whether `CN([O-])C(=S)C(=O)C(C)(C)C.CN([O-])C(=S)C(=O)C(C)(C)C.[Cu+2]` has growth inhibition rating, RHIZSO at least equal to 1.
T

Check the entry `CC(C)(C)C(=O)C(=S)N(Cc1ccccc1)OC(=O)Nc1ccccc1` : does growth inhibition rating, RHIZSO equal or exceed 1?
T

Please check the record `CN([O-])C(=S)C(=O)C(C)(C)C.CN([O-])C(=S)C(=O)C(C)(C)C.CN([O-])C(=S)C(=O)C(C)(C)C.[Fe+3]` and state if its growth inhibition rating, RHIZSO is at or above 1.
T

Threshold query (growth inhibition rating, RHIZSO >= 1) on `CC(C)(C)C(=O)C(=S)N([O-])Cc1ccccc1.CC(C)(C)C(=O)C(=S)N([O-])Cc1ccccc1.[Zn+2]`
F

###

System: Cercospora beticola
Procedure details: In vivo fungicidal evaluation, Sugar Beet Cercospora (SBC)
Condition description: 400 ppm, plants sprayed before inoculation
For each entry below, report its disease control rating, SBC value.
Give your answer as a number; write no unit.

// disease control rating, SBC lookup, compound = `CN([O-])C(=S)C(=O)C(C)(C)C.CN([O-])C(=S)C(=O)C(C)(C)C.[Zn+2]` , result: 7.5

Lab note: `CC(C)(C)C(=O)C(=S)N(O)C1CCCC1.CC(C)(C)C(=O)C(=S)N(O)C1CCCC1.[Zn+2]` gave disease control rating, SBC of 1.0

Record `CC(C)(C)C(=O)C(=S)N([O-])C1CCCC1.CC(C)(C)C(=O)C(=S)N([O-])C1CCCC1.[Cu+2]` . Reported disease control rating, SBC: 2.0

disease control rating, SBC measured on `CN(O)C(=S)C(=O)C(C)(C)C` = 3.5

Recorded disease control rating, SBC (compound `CC(C)(C)C(=O)C(=S)N([O-])C1CCCC1.CC(C)(C)C(=O)C(=S)N([O-])C1CCCC1.CC(C)(C)C(=O)C(=S)N([O-])C1CCCC1.[Fe+3]` ): 1.8

Briefly, disease control rating, SBC measured for `CN(O)C(=S)C(=O)C12CC3CC(CC(C3)C1)C2` : 3.0

Recorded disease control rating, SBC (compound `CN([O-])C(=S)C(=O)C12CC3CC(CC(C3)C1)C2.CN([O-])C(=S)C(=O)C12CC3CC(CC(C3)C1)C2.[Cu+2]` ): 1.8

Entry under test: `CN([O-])C(=S)C(=O)C(C)(C)C.CN([O-])C(=S)C(=O)C(C)(C)C.CN([O-])C(=S)C(=O)C(C)(C)C.[Fe+3]` . Its disease control rating, SBC was 6.8

Item: `CN([O-])C(=S)C(=O)C(C)(C)C.CN([O-])C(=S)C(=O)C(C)(C)C.[Cu+2]` | disease control rating, SBC: 6.1
